The origin of these recorded values is paper PMC4744546.

Assay type: in vivo, FVB wild-type mice
EXPERIMENTAL_PARAMETERS: FVB, mouse, whole blood, po, 20 mg/kg, Tmax, WT with curcumin; oral resveratrol 20mg/kg
REPORTED_PROPERTY: Tmax (min)
Quick reminder: number only, in min, skip the unit.

Reported Tmax, molecule O=S(=O)(O)Oc1cc(O)cc(C=Cc2ccc(O)cc2)c1 [R-3-S, resveratrol-3-O-sulfate] : ____ 18.6

----------
PROCEDURE_SUMMARY: Pharmacokinetic study of oral resveratrol with or without curcumin in Bcrp1
Assay type: in vivo, Bcrp1 (−/−) mice (FVB background)
EXPERIMENTAL_PARAMETERS: FVB, mouse, whole blood, po, 20 mg/kg, Tmax, Bcrp1 (−/−) with curcumin; oral resveratrol 20mg/kg
REPORTED_PROPERTY: Tmax (min)
Express it in min; write the number only.

Endpoint output: Tmax of O=S(=O)(O)Oc1cc(O)cc(C=Cc2ccc(O)cc2)c1 [R-3-S, resveratrol-3-O-sulfate] . Value? 15

----------
Assay type: in vivo, FVB wild-type mice
EXPERIMENTAL_PARAMETERS: FVB, mouse, whole blood, po, 20 mg/kg, t1/2, WT with curcumin; oral resveratrol 20mg/kg
REPORTED_PROPERTY: half-life
Dear colleague, please send the value followed by its unit.

// half-life lookup, key: O=S(=O)(O)Oc1cc(O)cc(C=Cc2ccc(O)cc2)c1 [R-3-S, resveratrol-3-O-sulfate] 9.32 h

----------
For each of the molecules below, state its Cmax.
Assay type: in vivo, FVB wild-type mice
EXPERIMENTAL_PARAMETERS: FVB, mouse, whole blood, po, 20 mg/kg
# unit: nM | format: bare number

Query: Cmax; subject: Oc1ccc(/C=C/c2cc(O)cc(O)c2)cc1 [Resveratrol, trans-3,5,4′-trihydroxystilbene] 600

Entry O=S(=O)(O)Oc1cc(O)cc(C=Cc2ccc(O)cc2)c1 [R-3-S, resveratrol-3-O-sulfate] has what Cmax? 1320

----------
Type: in vivo, FVB wild-type mice
EXPERIMENTAL_PARAMETERS: FVB, mouse, whole blood, po, 20 mg/kg, t1/2, WT control; oral resveratrol 20mg/kg without curcumin
REPORTED_PROPERTY: half-life (h)
Answer in h, number only, no unit symbol.

What half-life value was documented for this compound, O=S(=O)(O)Oc1cc(O)cc(C=Cc2ccc(O)cc2)c1 [R-3-S, resveratrol-3-O-sulfate] ? 3.77

----------
Please go through the items and note down their Tmax.
PROCEDURE_SUMMARY: Pharmacokinetic study of oral resveratrol with or without curcumin in Bcrp1
Format: in vivo, Bcrp1 (−/−) mice (FVB background)
EXPERIMENTAL_PARAMETERS: FVB, mouse, whole blood, po, 20 mg/kg, Tmax, Bcrp1 (−/−) without curcumin; oral resveratrol 20mg/kg
Provide only the numeric value, understood in min.

Query (molecule): Oc1ccc(/C=C/c2cc(O)cc(O)c2)cc1 [Resveratrol, trans-3,5,4′-trihydroxystilbene] ; field requested: Tmax 18.6

Using the record for O=S(=O)(O)Oc1cc(O)cc(C=Cc2ccc(O)cc2)c1 [R-3-S, resveratrol-3-O-sulfate] , report its Tmax. 15

----------
PROCEDURE_SUMMARY: Pharmacokinetic study of oral resveratrol with or without curcumin in Bcrp1
Format: in vivo, Bcrp1 (−/−) mice (FVB background)
EXPERIMENTAL_PARAMETERS: FVB, mouse, whole blood, po, 20 mg/kg, t1/2, Bcrp1 (−/−) with curcumin; oral resveratrol 20mg/kg
REPORTED_PROPERTY: half-life

Requested read-out: half-life. Entry: O=S(=O)(O)Oc1cc(O)cc(C=Cc2ccc(O)cc2)c1 [R-3-S, resveratrol-3-O-sulfate] 349 min
